- Tested on: Mel-DCC-11-R
- assay.name: cell viability relative to DMSO control (fraction of DMSO control); higher = less cytotoxic, active = 0.8 or less
- conditions: 1 µM; 120 h; vemurafenib co-treatment 0 µM
value.type: cell viability

Example entries begin here.
{"compound": "O=C(c1ccc(F)c(F)c1Nc1ccc(I)cc1F)N1CC(O)([C@@H]2CCCCN2)C1 [Cobimetinib]", "value.type": "cell viability", "recorded.result": "0.309 (active)"}
{"compound": "COC(=O)C1=C(C)NC(C)=C(C(=O)OC)C1c1ccccc1[N+](=O)[O-] [Nifedipine]", "value.type": "cell viability", "recorded.result": "1.1 (inactive)"}
{"compound": "COC(=O)C[C@](O)(CCCC(C)(C)O)C(=O)O[C@@H]1C(OC)=CC23CCCN2CCc2cc4c(cc2[C@H]13)OCO4 (some centres not stated) [Homoharringtonine]", "value.type": "cell viability", "recorded.result": "0.0454 (active)"}
{"compound": "O=C([O-])CCCc1ccccc1.[Na+] [Sodium Phenylbutyrate]", "value.type": "cell viability", "recorded.result": "1 (inactive)"}
{"compound": "CNC(=O)c1cc(Oc2ccc(NC(=O)Nc3ccc(Cl)c(C(F)(F)F)c3)c(F)c2)ccn1 [Regorafenib]", "value.type": "cell viability", "recorded.result": "0.909 (inactive)"}
{"compound": "COC(=O)c1ccc2c(c1)NC(=O)/C2=C(\\Nc1ccc(N(C)C(=O)CN2CCN(C)CC2)cc1)c1ccccc1 [Nintedanib]", "value.type": "cell viability", "recorded.result": "1.01 (inactive)"}
{"compound": "COC(=O)Nc1nc2ccc(C(=O)c3cccs3)cc2[nH]1 [Nocodazole]", "value.type": "cell viability", "recorded.result": "0.823 (inactive)"}
{"compound": "CCOc1cc2ncc(C#N)c(Nc3ccc(OCc4ccccn4)c(Cl)c3)c2cc1NC(=O)/C=C/CN(C)C [Neratinib]", "value.type": "cell viability", "recorded.result": "1.31 (inactive)"}
{"compound": "CC1(C)CCC(CN2CCN(c3ccc(C(=O)NS(=O)(=O)c4ccc(NCC5CCOCC5)c([N+](=O)[O-])c4)c(Oc4cnc5[nH]ccc5c4)c3)CC2)=C(c2ccc(Cl)cc2)C1", "value.type": "cell viability", "recorded.result": "1.04 (inactive)"}
{"compound": "O=NN(CCCl)C(=O)NC1CCCCC1 [Lomustine]", "value.type": "cell viability", "recorded.result": "0.985 (inactive)"}

Name the recorded cell viability for CN(C)C(=N)N=C(N)N.Cl [Metformin hydrochloride] .
0.843 (inactive)

Name the recorded cell viability for CC[C@@H]1C(=O)N(C)c2cnc(Nc3ccc(C(=O)N[C@H]4CC[C@H](N5CCN(CC6CC6)CC5)CC4)cc3OC)nc2N1C(C)C [Volasertib] .
1 (inactive)

The measured values listed here are drawn from the supplement of paper PMC12808144.
